# procedure text: pH-solubility of linsitinib free base and selected salts (pH 1.5 to 6.5, overnight equilibration, HPLC)
# Format: physicochemical
# recorded conditions: aqueous solution, pH adjusted with NaOH and HCl, pH 3.5, aqueous buffer, thermodynamic from solid, target pH 3.5; overnight equilibration; * = clear solution, not equilibrium value; read-out: Solubility
Can you tell me solubility for the items I'm about to list?
Numbers only, in µg/mL.

Before answering, review these 3 worked examples.
• C[C@]1(O)C[C@@H](c2nc(-c3ccc4ccc(-c5ccccc5)nc4c3)c3c(N)nccn32)C1 [Linsitinib free base, reference compound] = 1730
• C[C@]1(O)C[C@@H](c2nc(-c3ccc4ccc(-c5ccccc5)nc4c3)c3c(N)nccn32)C1.O=C(O)C[C@H](O)C(=O)O [L-Malate 1] = 4290
• C[C@]1(O)C[C@@H](c2nc(-c3ccc4ccc(-c5ccccc5)nc4c3)c3c(N)nccn32)C1.O=P(O)(O)O [Phosphate 1] = 7500

Now consider a different compound.
Please give the documented solubility of CCS(=O)(=O)O.C[C@]1(O)C[C@@H](c2nc(-c3ccc4ccc(-c5ccccc5)nc4c3)c3c(N)nccn32)C1 [Esylate 1]
31000

###

Kindly state solubility for each of the entries shown.
# procedure text: pH-solubility of linsitinib free base and selected salts (pH 1.5 to 6.5, overnight equilibration, HPLC)
# Type: physicochemical
# recorded conditions: aqueous solution, pH 4, aqueous buffer, thermodynamic from solid, target pH 4.0; overnight equilibration; * = clear solution, not equilibrium value; read-out: Solubility
Numbers only, in µg/mL.

* C[C@]1(O)C[C@@H](c2nc(-c3ccc4ccc(-c5ccccc5)nc4c3)c3c(N)nccn32)C1.O=C(O)C[C@H](O)C(=O)O [L-Malate 1] | 1340

For every listed record, write down its solubility.
1. C[C@]1(O)C[C@@H](c2nc(-c3ccc4ccc(-c5ccccc5)nc4c3)c3c(N)nccn32)C1 [Linsitinib free base, reference compound]
2. CCS(=O)(=O)O.C[C@]1(O)C[C@@H](c2nc(-c3ccc4ccc(-c5ccccc5)nc4c3)c3c(N)nccn32)C1 [Esylate 1]
3. C[C@]1(O)C[C@@H](c2nc(-c3ccc4ccc(-c5ccccc5)nc4c3)c3c(N)nccn32)C1.O=P(O)(O)O [Phosphate 1]

116
32300
5870

###

# procedure text: pH-solubility of linsitinib free base and selected salts (pH 1.5 to 6.5, overnight equilibration, HPLC)
# Format: physicochemical
# recorded conditions: target pH 2.5; after overnight equilibration
reported metric: Final pH
Give bare numbers.

Example results:
- C[C@]1(O)C[C@@H](c2nc(-c3ccc4ccc(-c5ccccc5)nc4c3)c3c(N)nccn32)C1.O=C(O)C[C@H](O)C(=O)O [L-Malate 1]: 2.37
- CCS(=O)(=O)O.C[C@]1(O)C[C@@H](c2nc(-c3ccc4ccc(-c5ccccc5)nc4c3)c3c(N)nccn32)C1 [Esylate 1]: 2.50
- C[C@]1(O)C[C@@H](c2nc(-c3ccc4ccc(-c5ccccc5)nc4c3)c3c(N)nccn32)C1.O=P(O)(O)O [Phosphate 1]: 2.46
- C[C@]1(O)C[C@@H](c2nc(-c3ccc4ccc(-c5ccccc5)nc4c3)c3c(N)nccn32)C1 [Linsitinib free base, reference compound]: 2.33

Answer with the recorded Final pH for the compound listed here: CCS(=O)(=O)O.C[C@]1(O)C[C@@H](c2nc(-c3ccc4ccc(-c5ccccc5)nc4c3)c3c(N)nccn32)C1 [Esylate 2]
2.54

###

Please respond with reported solubility for every item in the list.
# procedure text: pH-solubility of linsitinib free base and selected salts (pH 1.5 to 6.5, overnight equilibration, HPLC)
# Assay type: physicochemical
# recorded conditions: aqueous solution, pH adjusted with NaOH and HCl, pH 2, aqueous buffer, thermodynamic from solid, target pH 2.0; overnight equilibration; * = clear solution, not equilibrium value; read-out: Solubility
Numbers only, in mg/mL.

* C[C@]1(O)C[C@@H](c2nc(-c3ccc4ccc(-c5ccccc5)nc4c3)c3c(N)nccn32)C1.O=C(O)C[C@H](O)C(=O)O [L-Malate 1] | 74

Can you give me solubility for all of these, one by one?
1. C[C@]1(O)C[C@@H](c2nc(-c3ccc4ccc(-c5ccccc5)nc4c3)c3c(N)nccn32)C1 [Linsitinib free base, reference compound]
2. C[C@]1(O)C[C@@H](c2nc(-c3ccc4ccc(-c5ccccc5)nc4c3)c3c(N)nccn32)C1.O=P(O)(O)O [Phosphate 1]
3. CCS(=O)(=O)O.C[C@]1(O)C[C@@H](c2nc(-c3ccc4ccc(-c5ccccc5)nc4c3)c3c(N)nccn32)C1 [Esylate 1]

1: 23.6; 2: 25.9; 3: 59.1

###

# procedure text: Equilibrium solubility in bio-relevant media (FaSSGF pH 1.6, FaSSIF pH 6.5)
# Assay type: physicochemical
# recorded conditions: FaSSGF (pH 1.6), in words
reported metric: Solubility compared with the free base

* C[C@]1(O)C[C@@H](c2nc(-c3ccc4ccc(-c5ccccc5)nc4c3)c3c(N)nccn32)C1.O=C(O)C[C@H](O)C(=O)O [L-Malate 1] | largely comparable
* C[C@]1(O)C[C@@H](c2nc(-c3ccc4ccc(-c5ccccc5)nc4c3)c3c(N)nccn32)C1.O=P(O)(O)O [Phosphate 1] | largely comparable

###

Provide the reported Final pH of each item.
# procedure text: Equilibrium solubility in bio-relevant media (FaSSGF pH 1.6, FaSSIF pH 6.5)
# Format: physicochemical
# recorded conditions: FaSSGF (pH 1.6)
Answers are plain numbers.

Before answering, review these 4 worked examples.
- C[C@]1(O)C[C@@H](c2nc(-c3ccc4ccc(-c5ccccc5)nc4c3)c3c(N)nccn32)C1.O=C(O)C[C@H](O)C(=O)O [L-Malate 1]: 2.97
- CCS(=O)(=O)O.C[C@]1(O)C[C@@H](c2nc(-c3ccc4ccc(-c5ccccc5)nc4c3)c3c(N)nccn32)C1 [Esylate 1]: 3.30
- C[C@]1(O)C[C@@H](c2nc(-c3ccc4ccc(-c5ccccc5)nc4c3)c3c(N)nccn32)C1 [Linsitinib free base, reference compound]: 4.04
- CCS(=O)(=O)O.C[C@]1(O)C[C@@H](c2nc(-c3ccc4ccc(-c5ccccc5)nc4c3)c3c(N)nccn32)C1 [Esylate 2]: 3.25

// below: Final pH requested for another compound
Quick one: give measured Final pH for C[C@]1(O)C[C@@H](c2nc(-c3ccc4ccc(-c5ccccc5)nc4c3)c3c(N)nccn32)C1.O=P(O)(O)O [Phosphate 1]
2.74

###

# procedure text: pH-solubility of linsitinib free base and selected salts (pH 1.5 to 6.5, overnight equilibration, HPLC)
# Assay type: physicochemical
# recorded conditions: target pH 6.0; after overnight equilibration
Final pH of 6 or higher: 1.0. Under 6: 0.0.

* C[C@]1(O)C[C@@H](c2nc(-c3ccc4ccc(-c5ccccc5)nc4c3)c3c(N)nccn32)C1.O=P(O)(O)O [Phosphate 1] | 0.0
* CCS(=O)(=O)O.C[C@]1(O)C[C@@H](c2nc(-c3ccc4ccc(-c5ccccc5)nc4c3)c3c(N)nccn32)C1 [Esylate 1] | 1.0
* C[C@]1(O)C[C@@H](c2nc(-c3ccc4ccc(-c5ccccc5)nc4c3)c3c(N)nccn32)C1 [Linsitinib free base, reference compound] | 1.0
* CCS(=O)(=O)O.C[C@]1(O)C[C@@H](c2nc(-c3ccc4ccc(-c5ccccc5)nc4c3)c3c(N)nccn32)C1 [Esylate 2] | 0.0

Moving on to the next molecule.
Quick check, Final pH >= 6? C[C@]1(O)C[C@@H](c2nc(-c3ccc4ccc(-c5ccccc5)nc4c3)c3c(N)nccn32)C1.O=C(O)C[C@H](O)C(=O)O [L-Malate 1]
0.0

###

So I've got a bunch of molecules here, and I need their Final pH values.
# procedure text: pH-solubility of linsitinib free base and selected salts (pH 1.5 to 6.5, overnight equilibration, HPLC)
# Type: physicochemical
# recorded conditions: target pH 1.5; after overnight equilibration
One number for each entry.

Example molecules with recorded Final pH:
* C[C@]1(O)C[C@@H](c2nc(-c3ccc4ccc(-c5ccccc5)nc4c3)c3c(N)nccn32)C1.O=C(O)C[C@H](O)C(=O)O [L-Malate 1] | 1.45
* C[C@]1(O)C[C@@H](c2nc(-c3ccc4ccc(-c5ccccc5)nc4c3)c3c(N)nccn32)C1 [Linsitinib free base, reference compound] | 1.52

# return Final pH for each item in the list
1. CCS(=O)(=O)O.C[C@]1(O)C[C@@H](c2nc(-c3ccc4ccc(-c5ccccc5)nc4c3)c3c(N)nccn32)C1 [Esylate 2]
2. CCS(=O)(=O)O.C[C@]1(O)C[C@@H](c2nc(-c3ccc4ccc(-c5ccccc5)nc4c3)c3c(N)nccn32)C1 [Esylate 1]

1: 1.45; 2: 1.52

State its Final pH: C[C@]1(O)C[C@@H](c2nc(-c3ccc4ccc(-c5ccccc5)nc4c3)c3c(N)nccn32)C1.O=P(O)(O)O [Phosphate 1]
1.39

###

Kindly supply the reported solubility values for the records listed here.
# procedure text: pH-solubility of linsitinib free base and selected salts (pH 1.5 to 6.5, overnight equilibration, HPLC)
# Format: physicochemical
# recorded conditions: aqueous solution, pH adjusted with NaOH and HCl, pH 3, aqueous buffer, thermodynamic from solid, target pH 3.0; overnight equilibration; * = clear solution, not equilibrium value; read-out: Solubility
One number for each entry, in mg/mL.

Field: example entries. Status: answers known.
- C[C@]1(O)C[C@@H](c2nc(-c3ccc4ccc(-c5ccccc5)nc4c3)c3c(N)nccn32)C1.O=C(O)C[C@H](O)C(=O)O [L-Malate 1]: 15.3
- CCS(=O)(=O)O.C[C@]1(O)C[C@@H](c2nc(-c3ccc4ccc(-c5ccccc5)nc4c3)c3c(N)nccn32)C1 [Esylate 1]: 53
- C[C@]1(O)C[C@@H](c2nc(-c3ccc4ccc(-c5ccccc5)nc4c3)c3c(N)nccn32)C1 [Linsitinib free base, reference compound]: 15

Continue with the compound presented below.
Item C[C@]1(O)C[C@@H](c2nc(-c3ccc4ccc(-c5ccccc5)nc4c3)c3c(N)nccn32)C1.O=P(O)(O)O [Phosphate 1] : provide solubility
14.9
